The following molecules are listed with their measured Bliss interaction score values.
# System: S. aureus DSM 20231
# EXPERIMENTAL_PROTOCOL: Bliss interaction score (quartile over a dose matrix) (fitness difference); higher = more antagonism (negative = synergy)

MOLECULE: CC1(C)S[C@@H]2[C@H](NC(=O)[C@H](N)c3ccc(O)cc3)C(=O)N2[C@H]1C(=O)O [Amoxicillin] + Cn1nnc(-c2ccc(-c3ccc(N4C[C@H](CO)OC4=O)cc3F)cn2)n1 [Tedizolid]
Bliss interaction score: -0.0515
//
MOLECULE: CCCCCCCCCC(=O)N[C@@H](Cc1c[nH]c2ccccc12)C(=O)N[C@H](CC(N)=O)C(=O)N[C@@H](CC(=O)O)C(=O)N[C@@H]1C(=O)NCC(=O)N[C@@H](CCCN)C(=O)N[C@@H](CC(=O)O)C(=O)N[C@H](C)C(=O)N[C@@H](CC(=O)O)C(=O)NCC(=O)N[C@H](CO)C(=O)N[C@@H]([C@H](C)CC(=O)O)C(=O)N[C@@H](CC(=O)c2ccccc2N)C(=O)O[C@@H]1C [Daptomycin] + COc1c(N2C[C@@H]3CCCN[C@@H]3C2)c(F)cc2c(=O)c(C(=O)O)cn(C3CC3)c12 [Moxifloxacin]
Bliss interaction score: -0.0667
//
MOLECULE: CC1(C)S[C@@H]2[C@H](NC(=O)[C@H](N)c3ccc(O)cc3)C(=O)N2[C@H]1C(=O)O [Amoxicillin] + C[C@H]1c2cccc(O)c2C(=O)C2=C(O)[C@]3(O)C(=O)C(C(N)=O)=C(O)[C@@H](N(C)C)[C@@H]3[C@@H](O)[C@@H]21 [Doxycycline]
Bliss interaction score: -0.0671
//
MOLECULE: CN(C)C(=O)C(CCN1CCC(O)(c2ccc(Cl)cc2)CC1)(c1ccccc1)c1ccccc1 [Loperamide] + CC[C@H]1OC(=O)[C@H](C)C(=O)[C@H](C)[C@@H](O[C@@H]2O[C@H](C)C[C@H](N(C)C)[C@H]2O)[C@](C)(OC)C[C@@H](C)C(=O)[C@H](C)[C@H]2N(CCCCn3cnc(-c4cccnc4)c3)C(=O)O[C@]12C [Telithromycin]
Bliss interaction score: 0.0619
//
MOLECULE: Cn1nnc(-c2ccc(-c3ccc(N4C[C@H](CO)OC4=O)cc3F)cn2)n1 [Tedizolid] + CN[C@H](CC(C)C)C(=O)N[C@H]1C(=O)N[C@@H](CC(N)=O)C(=O)N[C@H]2C(=O)N[C@H]3C(=O)N[C@H](C(=O)N[C@H](C(=O)O)c4cc(O)cc(O)c4-c4cc3ccc4O)[C@H](O)c3ccc(c(Cl)c3)Oc3cc2cc(c3O[C@@H]2O[C@H](CO)[C@@H](O)[C@H](O)[C@H]2O[C@H]2C[C@](C)(N)[C@H](O)[C@H](C)O2)Oc2ccc(cc2Cl)[C@H]1O [Vancomycin]
Bliss interaction score: -0.0656
//
MOLECULE: CCN(CC)CCOC(=O)c1ccc(N)cc1 [Procaine] + COc1ccc(C[C@H](N)C(=O)N[C@H]2[C@@H](O)[C@H](n3cnc4c(N(C)C)ncnc43)O[C@@H]2CO)cc1 [Puromycin]
Bliss interaction score: 0.047

###

For reference, MIC measured on S. aureus DSM 20231:

MOLECULE: CC1(C)S[C@@H]2[C@H](NC(=O)[C@H](N)c3ccc(O)cc3)C(=O)N2[C@H]1C(=O)O [Amoxicillin]
TARGET_OF_ASSAY: S. aureus DSM 20231
REL: =
MIC, µg/mL: 0.556

MOLECULE: CO/N=C(\C(=O)N[C@@H]1C(=O)N2C(C(=O)[O-])=C(C[N+]3(C)CCCC3)CS[C@H]12)c1csc(N)n1 [Cefepime]
TARGET_OF_ASSAY: S. aureus DSM 20231
REL: =
MIC, µg/mL: 0.556

MOLECULE: CCN(CC)CCOC(=O)c1ccc(N)cc1 [Procaine]
TARGET_OF_ASSAY: S. aureus DSM 20231
REL: >
MIC, µg/mL: 342

MOLECULE: CCCCCCCCCC(=O)N[C@@H](Cc1c[nH]c2ccccc12)C(=O)N[C@H](CC(N)=O)C(=O)N[C@@H](CC(=O)O)C(=O)N[C@@H]1C(=O)NCC(=O)N[C@@H](CCCN)C(=O)N[C@@H](CC(=O)O)C(=O)N[C@H](C)C(=O)N[C@@H](CC(=O)O)C(=O)NCC(=O)N[C@H](CO)C(=O)N[C@@H]([C@H](C)CC(=O)O)C(=O)N[C@@H](CC(=O)c2ccccc2N)C(=O)O[C@@H]1C [Daptomycin]
TARGET_OF_ASSAY: S. aureus DSM 20231
REL: =
MIC, µg/mL: 2
